test: Volume of distribution in rat; assay type: ADME, organism-based; conditions: in vivo
recorded_metric: Vd (L/kg)

INSERT INTO measurements (smiles_text, result) VALUES
  ('O=C(COCc1ccncc1)N1CCN(c2ccc(F)cc2Cl)CC1', 4.8);

* * *

assay: Half life in dog; type: ADME, organism-based, Canis lupus familiaris; conditions: in vivo
recorded_metric: half-life (h)

INSERT INTO results (smiles_text, recorded_metric, result) VALUES
  ('O=C(COCc1ccncc1)N1CCN(c2ccc(F)cc2Cl)CC1', 'half-life', 2.9);

* * *

molecular target: Metabotropic glutamate receptor 5 (Rattus norvegicus)
recorded_metric: Ki

INSERT INTO results (smiles_text, target_system, result) VALUES
  ('O=C(COCc1ccncc1)N1CCN(c2ccc(F)cc2Cl)CC1', 'Metabotropic glutamate receptor 5 (Rattus norvegicus)', '2370 nM');

* * *

experiment: Clearance in rat plasma; assay type: ADME, organism-based
recorded_metric: clearance

INSERT INTO results (smiles_text, result) VALUES
  ('O=C(COCc1ccncc1)N1CCN(c2ccc(F)cc2Cl)CC1', '3.3 L/h/kg');

* * *

test: Oral bioavailability in rat; assay type: ADME, organism-based; details: in vivo
recorded_metric: bioavailability (%)

INSERT INTO results (smiles_text, recorded_metric, result) VALUES
  ('O=C(COCc1ccncc1)N1CCN(c2ccc(F)cc2Cl)CC1', 'bioavailability', 41);

* * *

log10 of microsomal CLint: recorded values
experiment: Intrinsic clearance in human liver microsome assessed as per mg of protein; type: ADME; settings: liver microsomes
recorded_metric: log10 of microsomal CLint (log10 of the value in µL/min/mg)

INSERT INTO assay_data (smiles_text, recorded_metric, result) VALUES
  ('Cc1cc(Cl)ccc1N1CCN(C(=O)COCc2ccncc2)CC1', 'log10 of microsomal CLint', 1.83),
  ('O=C(COCc1ccccc1)N1CCN(c2cccc(Cl)c2)CC1', 'log10 of microsomal CLint', 2.49),
  ('O=C(COCc1ccccc1)N1CCN(c2ccc(F)cc2Cl)CC1', 'log10 of microsomal CLint', 2.72),
  ('O=C(COCc1ccccn1)N1CCN(c2ccc(Cl)cc2Cl)CC1', 'log10 of microsomal CLint', 1.97),
  ('O=C(COCc1ccncc1)N1CCN(c2ccc(F)cc2Cl)CC1', 'log10 of microsomal CLint', 1.46),
  ('O=C(COCc1ccncn1)N1CCN(c2ccc(Cl)cc2Cl)CC1', 'log10 of microsomal CLint', 1.23),
  ('O=C(COCc1cccs1)N1CCN(c2ccc(Cl)cc2Cl)CC1', 'log10 of microsomal CLint', 2.56),
  ('O=C(COCc1cccnc1)N1CCN(c2ccc(Cl)cc2Cl)CC1', 'log10 of microsomal CLint', 2.32),
  ('N#Cc1ccc(COCC(=O)N2CCN(c3ccc(Cl)cc3Cl)CC2)s1', 'log10 of microsomal CLint', 2.04),
  ('O=C(COCc1ccncc1)N1CCN(c2ccc(Cl)cc2Cl)CC1', 'log10 of microsomal CLint', 1.88),
  ('O=C(COCc1ccncc1)N1CCC(c2ccc(F)cc2Cl)CC1', 'log10 of microsomal CLint', 1.75);

* * *

assay: Ratio of drug level in brain to plasma in rat; assay type: ADME, organism-based; settings: brain and plasma, read-out: BPR
recorded_metric: Kp

INSERT INTO results (smiles_text, result) VALUES
  ('O=C(COCc1ccncc1)N1CCN(c2ccc(F)cc2Cl)CC1', 4.6);
